- MEASURED_TARGET: cynomolgus LIV-1 (cynomolgus, UniProt A0A2K5WH46 30-741)
- Sequence (A0A2K5WH46 entry or part of it): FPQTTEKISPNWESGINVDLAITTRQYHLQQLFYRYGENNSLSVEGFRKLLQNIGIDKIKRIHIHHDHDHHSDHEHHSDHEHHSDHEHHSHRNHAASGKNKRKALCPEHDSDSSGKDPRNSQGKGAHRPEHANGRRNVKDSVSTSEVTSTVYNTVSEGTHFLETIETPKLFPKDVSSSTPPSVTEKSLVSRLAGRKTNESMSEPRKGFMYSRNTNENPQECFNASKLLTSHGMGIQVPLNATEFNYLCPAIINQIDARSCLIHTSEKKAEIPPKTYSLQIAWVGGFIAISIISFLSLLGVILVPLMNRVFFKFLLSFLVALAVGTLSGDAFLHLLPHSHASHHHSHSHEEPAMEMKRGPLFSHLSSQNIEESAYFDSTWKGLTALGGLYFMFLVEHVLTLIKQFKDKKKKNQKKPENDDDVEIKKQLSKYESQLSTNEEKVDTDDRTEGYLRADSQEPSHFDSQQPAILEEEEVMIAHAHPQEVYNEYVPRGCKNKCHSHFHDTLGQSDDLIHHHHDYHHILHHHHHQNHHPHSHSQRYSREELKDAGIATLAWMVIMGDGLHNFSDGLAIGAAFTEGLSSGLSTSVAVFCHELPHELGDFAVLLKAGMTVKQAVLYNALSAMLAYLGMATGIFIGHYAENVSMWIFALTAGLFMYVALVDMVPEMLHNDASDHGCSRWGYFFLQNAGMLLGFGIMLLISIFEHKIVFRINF
- PROTOCOL_NOTES: FACS, cyno LIV-1 cells
REPORTED_ENDPOINT: pEC50
Reminder that pEC50 is minus the log10 of a molar concentration.

Worked examples, 2 binders total:
{"columns": ["BINDER", "REPORTED_ENDPOINT", "REPORTED_MEASUREMENT"],
 "data": [
  ["290F10G10.p1.Z10 (antibody, V domains shown) VH: EVQLVQSGAEVKKPGASVKVSCKASGYTFTSYWIHWVRQAPGQGLEWMGTIYPGDADTRSTQKFKDRVTVTADKSTSTVYMELSSLRSEDTAVYYCTRSLIHDDYDKYYFDYWGQGTTVTVSS VL: DIQMTQSPSSLSASVGDRVTITCKARQDINKYIAWYQQKPGKAPKLLIYYTSILQPGVPSRFSGSGSGRDYTFTISSLQPEDIATYYCLQYDYFFTFGGGTKVEIK", "pEC50", 9.16],
  ["290F10G10.p1.Z8 (antibody, V domains shown) VH: EVQLVQSGAEVKKPGASVKVSCKASGYTFTSYWIHWVRQAPGQGLEWIGTIYPGDADTRSTQKFKDKATVTADKSTSTVYMELSSLRSEDTAVYYCARSLIHDDYDKYYFDYWGQGTTVTVSS VL: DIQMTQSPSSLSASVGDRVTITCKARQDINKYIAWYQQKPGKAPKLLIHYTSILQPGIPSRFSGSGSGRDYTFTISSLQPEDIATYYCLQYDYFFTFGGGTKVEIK", "pEC50", 9.44]
]}

Req: Provide pEC50 value for the following binder: 290F10G10.p1.Z2 (antibody, V domains shown, also called 290F10G10.z2; LM-001) VH: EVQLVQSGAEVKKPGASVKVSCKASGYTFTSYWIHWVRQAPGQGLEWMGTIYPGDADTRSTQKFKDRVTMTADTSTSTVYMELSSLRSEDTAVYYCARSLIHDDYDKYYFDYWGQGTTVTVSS VL: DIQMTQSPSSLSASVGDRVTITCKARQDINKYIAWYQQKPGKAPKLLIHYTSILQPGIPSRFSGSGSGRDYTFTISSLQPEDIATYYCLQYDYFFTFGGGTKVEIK
Resp: 9.42
